assay: chemical genetic growth profiling, strain panel (AID 1159580);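 further: tested at 20 µM; growth read once vehicle control cultures reached saturation at 30 °C; lower values mean less growth of the strain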
testSettings: S. cerevisiae deletion strains, growth OD, locus YGL173C, strain kem1, stronger effect = lower value
Among all 5,500 compounds or so, about 2,000 (36%) were called active. About 18% were inconclusive and are not listed. The list shows a part of the results.
Returns: string. Value is true if measured normalized growth is below 1, and false if it is greater than or equal to it.

compound="CC(=O)O[C@@H]1CC2C(C)(C)[C@H](O)C[C@H](O)[C@]2(C)C2CC[C@@]3(C)[C@H](c4ccoc4)OC(=O)[C@H]4O[C@]43[C@@]21C (some centres undefined)" class=true

Input COc1ccc(-c2cc(=O)c3cc(OC)ccc3o2)cc1 ; condition: normalized growth strictly below 1. Does it hold?
true

Input CC(=O)O[C@@H]1CC2C(C)(C)C(=O)CC[C@]2(C)C2CC[C@@]3(C)[C@H](c4ccoc4)OC(=O)C4OC43[C@@]21C (some centres undefined) ; condition: normalized growth strictly below 1. Does it hold?
true
